# system.name: CXC chemokine receptor type 4 (CXCR4) (human, UniProt P61073 1-352)
# Sequence (P61073 whole entry): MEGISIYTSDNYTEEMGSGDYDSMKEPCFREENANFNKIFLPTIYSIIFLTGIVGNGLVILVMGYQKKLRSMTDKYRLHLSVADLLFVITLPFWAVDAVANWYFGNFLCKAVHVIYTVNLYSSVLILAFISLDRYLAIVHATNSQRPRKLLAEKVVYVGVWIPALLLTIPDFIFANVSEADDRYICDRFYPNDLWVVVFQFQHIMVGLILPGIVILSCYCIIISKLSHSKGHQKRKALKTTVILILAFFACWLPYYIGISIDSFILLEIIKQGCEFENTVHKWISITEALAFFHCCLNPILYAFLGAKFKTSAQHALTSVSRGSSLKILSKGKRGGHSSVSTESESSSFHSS
# assay.notes: cell-based or functional assay
Where no end group is shown, it is not given here. Side-chain parts run from the residue outwards. [ ]: non-standard residue; d: D form. The star is where a group is joined. Stearoyl = CCCCCCCCCCCCCCCCCC(=O)*; Palmitoyl = CCCCCCCCCCCCCCCC(=O)*; Myristoyl = CCCCCCCCCCCCCC(=O)*; Glu = glutamate linker
parameter: IC50, HIV inhibition assay

| binder | assay.result |
| --- | --- |
| IFRWSRKVPCVS [JM#10] | 50 to 150 nM |
| I[dL]RWSRKMPCVS [JM#42] | > 150 nM |
| IVRWSKK(Palmitoyl)-NH2 [JM#165] | > 150 nM |
| ILRWSRKLPCVS (not fully specified (residue 7)) [JM#204] | > 150 nM |
| [dL]LRWSRK(Palmitoyl)-NH2 (N-terminus assumed; SMILES CCCCCCCCCCCCCCCC(=O)NCCCC[C@H](NC(=O)[C@H](CCCNC(=N)N)NC(=O)[C@H](CO)NC(=O)[C@H](Cc1c[nH]c2ccccc12)NC(=O)[C@H](CCCNC(=N)N)NC(=O)[C@H](CC(C)C)NC(=O)[C@H](N)CC(C)C)C(N)=O) [JM#236] | > 150 nM |
| [dL]MRWSRK(Palmitoyl)-NH2 (N-terminus assumed; SMILES CCCCCCCCCCCCCCCC(=O)NCCCC[C@H](NC(=O)[C@H](CCCNC(=N)N)NC(=O)[C@H](CO)NC(=O)[C@H](Cc1c[nH]c2ccccc12)NC(=O)[C@H](CCCNC(=N)N)NC(=O)[C@H](CCSC)NC(=O)[C@H](N)CC(C)C)C(N)=O) [JM#180] | 5 to 10 nM |
| [dL]LRWSRKMPCVS (not fully specified (residue 7)) [JM#140] | 50 to 150 nM |
| [dI]LRWSRKLP-NH2 [JM#174] | > 150 nM |
| ILRWSHKVPCVS [JM#9] | > 150 nM |
| ILRWSRK([Glu-Stearoyl])LPSVS (derived from JM#198 by replacing the cysteine at position 10 by a serine; also called ILRWSRK(Glu-Ste)LPSVS) [SEQ ID NO.: 164] | > 150 nM |
| ILRWSRK(Palmitoyl)MPCLS [JM#149] | 50 to 150 nM |
| ILRWSRKLPCK([Glu-Palmitoyl])S [JM#145] | > 150 nM |
| ILRWSRK-NH2 [JM#118] | > 150 nM |
| [dI]LRWSRK(Palmitoyl)-NH2 [JM#237] | > 150 nM |
| Ac-[dS]MRWSRKMPCVS [JM#33] | > 150 nM |
| [dM]MRWSRKMPCVS [JM#35] | > 150 nM |
| [dM]LRWSRK([Glu-Palmitoyl])-NH2 [JM#196] | > 150 nM |
| ILRWSRKVPC[dV]S [JM#15] | > 150 nM |
| ILRWSRK(Myristoyl)-NH2 [JM#262] | 50 to 150 nM |
| [dF]MRWSRKMPCVS [JM#37] | > 150 nM |
| ILRWSRK(Stearoyl)LPCVS [JM#182] | > 150 nM |
| IVRWSKKFPCVS [JM#7] | > 150 nM |
| ILRWSRK(Dec)LPCVS [JM#215] | > 150 nM |
| XLRWSRKMPCVS (d-M at position 1) [JM#28] | > 150 nM |
| Ac-SLRWSRKMPCVS [JM#25] | > 150 nM |

Provenance of the data: patent US20230131339A1
